EXPERIMENTAL TARGET: H1047R PIK3CA enzyme (Homo sapiens, UniProt P42336, H1047R)
Sequence (P42336 whole entry H1047R): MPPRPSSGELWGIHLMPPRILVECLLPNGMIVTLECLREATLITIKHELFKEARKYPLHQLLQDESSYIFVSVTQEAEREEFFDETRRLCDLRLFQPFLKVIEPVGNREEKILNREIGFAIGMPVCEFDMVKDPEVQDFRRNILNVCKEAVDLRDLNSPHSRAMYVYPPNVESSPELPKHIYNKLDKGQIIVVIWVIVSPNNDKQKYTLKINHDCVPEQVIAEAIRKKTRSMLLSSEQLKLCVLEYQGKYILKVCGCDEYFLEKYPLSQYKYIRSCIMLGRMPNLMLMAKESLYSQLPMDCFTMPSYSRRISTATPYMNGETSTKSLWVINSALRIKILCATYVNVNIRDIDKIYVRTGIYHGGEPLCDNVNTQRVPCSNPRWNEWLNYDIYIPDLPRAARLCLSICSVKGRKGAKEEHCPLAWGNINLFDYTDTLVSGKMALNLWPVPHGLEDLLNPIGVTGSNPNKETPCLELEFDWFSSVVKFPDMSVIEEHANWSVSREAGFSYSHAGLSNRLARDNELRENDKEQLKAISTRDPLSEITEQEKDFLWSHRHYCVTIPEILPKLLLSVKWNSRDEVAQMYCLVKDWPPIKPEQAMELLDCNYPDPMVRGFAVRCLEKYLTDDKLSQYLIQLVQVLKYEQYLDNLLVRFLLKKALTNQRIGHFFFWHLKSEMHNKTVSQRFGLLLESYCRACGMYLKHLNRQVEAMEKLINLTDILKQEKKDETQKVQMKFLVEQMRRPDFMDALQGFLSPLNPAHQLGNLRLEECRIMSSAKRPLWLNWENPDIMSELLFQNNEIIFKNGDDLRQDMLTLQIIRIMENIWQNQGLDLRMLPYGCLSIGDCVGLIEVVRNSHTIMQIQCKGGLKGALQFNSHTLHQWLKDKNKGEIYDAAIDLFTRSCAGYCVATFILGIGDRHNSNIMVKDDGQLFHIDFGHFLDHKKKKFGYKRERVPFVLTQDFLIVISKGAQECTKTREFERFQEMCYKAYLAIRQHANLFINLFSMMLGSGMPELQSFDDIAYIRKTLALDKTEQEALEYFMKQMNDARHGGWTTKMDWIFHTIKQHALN
Sequence (P27986 whole entry partner): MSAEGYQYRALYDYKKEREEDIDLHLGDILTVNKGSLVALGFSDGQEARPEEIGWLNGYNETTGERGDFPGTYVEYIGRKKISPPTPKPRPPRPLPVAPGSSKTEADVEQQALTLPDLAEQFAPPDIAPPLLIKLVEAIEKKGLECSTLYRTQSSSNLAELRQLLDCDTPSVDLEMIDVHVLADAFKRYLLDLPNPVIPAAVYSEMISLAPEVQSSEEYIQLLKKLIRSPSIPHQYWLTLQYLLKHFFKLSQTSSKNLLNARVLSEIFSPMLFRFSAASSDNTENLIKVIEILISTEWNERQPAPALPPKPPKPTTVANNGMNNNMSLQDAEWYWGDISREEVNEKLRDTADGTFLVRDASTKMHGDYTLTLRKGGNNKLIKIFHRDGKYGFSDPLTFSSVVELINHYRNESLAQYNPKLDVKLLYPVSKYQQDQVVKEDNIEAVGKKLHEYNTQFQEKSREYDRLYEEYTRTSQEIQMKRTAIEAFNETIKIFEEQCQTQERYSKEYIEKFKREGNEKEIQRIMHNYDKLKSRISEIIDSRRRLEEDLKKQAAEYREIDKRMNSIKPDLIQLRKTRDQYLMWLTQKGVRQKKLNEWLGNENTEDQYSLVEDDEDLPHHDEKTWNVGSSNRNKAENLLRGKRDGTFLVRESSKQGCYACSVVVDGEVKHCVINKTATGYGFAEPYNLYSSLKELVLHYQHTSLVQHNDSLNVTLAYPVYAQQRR
TEST PROTOCOL: ADP-Glo Biochemical PIK3CA Kinase Assay

{"columns": ["COMPOUND", "IC50"],
 "data": [
  ["CC1(O)CN(c2cc(NC(=O)c3cc(F)cc(C(F)(F)F)c3)c3c(n2)C(=O)NC3c2cc(F)ccc2Cl)C1 (stereo not shown)", "100 to 500 nM"],
  ["[2H]c1nc2cnc(-c3cc(NC(=O)c4cc(F)cc(C(F)(F)F)c4)c4c(c3)C(=O)NC4c3cc(F)ccc3Cl)cn2n1 (stereo not shown)", "≤ 100 nM"],
  ["CCC1CCCN1C(=O)Nc1cccc2c1C(c1cc(F)ccc1Cl)NC2=O (mixture of isomers)", "1000 to 10000 nM"],
  ["C[C@]1(O)C[C@@H](Nc2cc(NC(=O)c3cc(F)cc(C(F)(F)F)c3)c3c(n2)C(=O)NC3c2cc(F)ccc2Cl)C1 (single isomer, unassigned)", "100 to 500 nM"],
  ["O=C1CCc2cc(F)cc(C(=O)Nc3cc(Br)cc4c3C(c3cc(F)ccc3Cl)NC4=O)c2N1 (stereo not shown)", "10000 to 100000 nM"],
  ["O=C(Nc1cccc2c1C(CC1CCCCC1)NC2=O)c1cc(F)cc(C(F)(F)F)c1 (stereo not shown)", "1000 to 10000 nM"],
  ["N#Cc1cc(NC(=O)N2C[C@](O)(C(F)(F)F)c3cc(F)ccc32)c2c(c1)C(=O)N[C@H]2c1cc(F)ccc1Cl (single isomer, unassigned)", "1000 to 10000 nM"],
  ["Cc1ccccc1[C@H]1NC(=O)c2nccc(NC(=O)N3CCc4c(F)cc(F)cc43)c21", "10000 to 100000 nM"],
  ["CC(c1cc(NC(=O)c2cc(F)cc(C(F)(F)F)c2)c2c(c1)C(=O)NC2c1cc(F)ccc1Cl)S(C)(=O)=O (stereo not shown)", "≤ 100 nM"],
  ["CC(C)(O)c1cc(NC(=O)c2cc(F)cc(C(F)(F)F)c2)c2c(n1)C(=O)NC2c1cc(F)ccc1Cl (stereo not shown)", "100 to 500 nM"],
  ["NC(=O)C(C(=O)Nc1cc(-c2ccc3ncnn3c2)cc2c1C(c1cc(F)ccc1Cl)NC2=O)c1ccccc1 (stereo not shown)", "1000 to 10000 nM"],
  ["O=C(Nc1cc(-c2csc(C(=O)O)n2)cc2c1C(c1cc(F)ccc1Cl)NC2=O)c1cc(F)cc(C(F)(F)F)c1 (stereo not shown)", "≤ 100 nM"],
  ["O=C1N[C@H](c2cc(F)ccc2Cl)c2c(NC(=O)N3CCC[C@@](O)(C(F)(F)F)C3)cccc21 (single isomer, unassigned)", "10000 to 100000 nM"]
]}

###

EXPERIMENTAL TARGET: H1047R PIK3CA enzyme (Homo sapiens, UniProt P42336, H1047R)
TEST PROTOCOL: ADP-Glo Biochemical PIK3CA Kinase Assay
Entries and their measured IC50 follow.

{"columns": ["COMPOUND", "IC50"],
 "data": [
  ["Cc1ccccc1S(=O)(=O)Cc1cc(NC(=O)c2cc(F)cc(C(F)(F)F)c2)c2c(c1)C(=O)NC2c1cc(F)ccc1Cl (stereo not shown)", "≤ 0.1 µM"],
  ["O=C(Nc1cc(Br)cc2c1[C@H](c1cc(F)c(F)cc1Cl)NC2=O)c1cc(F)cc(C(F)(F)F)c1", "≤ 0.1 µM"],
  ["Cc1ccccc1C1NC(=O)c2nccc(NC(=O)N3CCc4cccnc43)c21 (stereo not shown)", "1 to 10 µM"],
  ["N#Cc1nccn1Cc1cc(NC(=O)c2cc(F)cc(C(F)(F)F)c2)c2c(c1)C(=O)NC2c1cc(F)ccc1Cl (stereo not shown)", "≤ 0.1 µM"],
  ["O=C1NC(c2cc(F)ccc2Cl)c2c(NC(=O)C34CC5CC(CC(C5)C3)C4)cccc21 (stereo not shown)", "0.1 to 0.5 µM"],
  ["O=C(Nc1cc(Br)cc2c1C(c1cc(F)ccc1C(F)(F)F)NC2=O)c1cc(F)cc(C(F)(F)F)c1 (stereo not shown)", "≤ 0.1 µM"],
  ["O=C(Nc1cc(Br)cc2c1C(c1cc(F)ccc1Cl)NC2=O)c1cc(C(F)(F)F)cs1 (stereo not shown)", "1 to 10 µM"]
]}
